# Test system: AML samples (live leukemic cells from bone marrow or peripheral blood of patients)
# METHOD: Ex-vivo effect on AML patient samples (depletion of live leukemic cells, flow cytometry, Annexin V)
# Type: cell-based, human
# CONDITION_SUMMARY: Homo sapiens, plates incubated for 48 hours
OBSERVATION_TYPE: EC50

Quick one: EC50 for CC(C)OC(=O)[C@H](C)NP(=O)(OC[C@H]1O[C@@H](n2cnc3c(N)nc(F)nc32)[C@@H](O)[C@@H]1O)Oc1ccccc1 (stereo partly shown) ?
≥ 20 µM

###

# System: AML samples (live leukemic cells from bone marrow or peripheral blood of patients)
# METHOD: Ex-vivo effect on AML patient samples (depletion of live leukemic cells, flow cytometry, Annexin V)
# Type: cell-based, human
# CONDITION_SUMMARY: Homo sapiens, 48 h, plates incubated for 48 hours, read-out: Emax
Please provide measured Emax for the entries that follow.

Which Emax is reported with AML samples (live leukemic cells from bone marrow or peripheral blood of patients) for this entry: CC(C)OP1(=O)OC[C@H]2O[C@@H](N3C=NC4C(N)=NC(F)=NC43)[C@@H](O)[C@@H]2O1 (single isomer, unassigned) [drawing 675] ?
> 20%

Follow-up item: CCOC(=O)[C@H](CC(C)C)NP(=O)(O)OC[C@H]1O[C@@H](N2C=NC3C(N)=NC(F)=NC32)[C@@H](O)[C@@H]1O (stereo partly drawn)
> 20%

Could you do the same for CCOC(=O)[C@H](C)NP1(=O)OC[C@H]2O[C@@H](n3cnc4c(N)nc(F)nc43)[C@@H](O)[C@@H]2O1 (single isomer, unassigned) [drawing 680] , please?
> 20%

What about Nc1nc(F)nc2c1ncn2[C@@H]1O[C@H](COP(=O)(O)NCc2ccccc2)[C@@H](O)[C@@H]1O ?
0 to 10%

Entry to check: COC(=O)[C@H](CC(C)C)NP(=O)(N[C@@H](CC(C)C)C(=O)OC)OC[C@H]1O[C@@H](N2C=NC3C(N)=NC(F)=NC32)[C@@H](O)[C@@H]1O (stereo partly drawn)
10 to 20%

Here is the next compound: COC(=O)COP(=O)(NC(CC(C)C)C(=O)OC)OC[C@H]1O[C@@H](n2cnc3c(N)nc(F)nc32)[C@@H](O)[C@@H]1O (stereo partly drawn)
0 to 10%
